The reported measurements were obtained from patent US20160194358A1.

So I've got a bunch of molecules here, and I need their MIC (μg/mL) E. coli values.
- Test system: Escherichia coli strain MC4100 IMP-4213, which harbors an LptD mutation
- condition info: E. coli MC4100 IMP-4213; 35° C., 22 hours
*1 amine or outer side, *2 acyl side, *3 side chain or, on linkers, in order; H or OH if unused. Where a SMILES comes first, the peptide text is derived from it. [ ]: non-standard residue; d: D form. The star is where a group is joined. boroAla((+)-pinanediol) = C[C@H](N*)B1O[C@@H]2C[C@@H]3C[C@@H](C3(C)C)[C@]2(C)O1; Biphenylcarbonyl(4'-Bu) = CCCCc1ccc(-c2ccc(C(=O)*)cc2)cc1; Ethanesulfonyl(2-NHDecyl) = CCCCCCCCCCNCCS(=O)(=O)*; Propanoyl(3-decylamino) = CCCCCCCCCCNCCC(=O)*; X32 = CCCCCCN1CCN([*:1])C(C(=O)[*:2])C1; AlaCOCOOMe = COC(=O)C(=O)[C@H](C)N*; X22 = C[C@H](N*)C(=O)C(=O)O; Decanoyl = CCCCCCCCCC(=O)*; X4 = c1ccc(C2CCN(*)CC2)cc1; boroAla = C[C@H](N*)B(O)O; Dab = NCC[C@H](N)C(=O)O; Dap = NC[C@H](N)C(=O)O; CO = O=C([*:1])[*:2]; Sar = CNCC(=O)O

Check out these entries, answers already filled in.
# molecule, readout type, result
records = [
    ("CCCCCCCCCC(=O)N[C@@H](CCN)C(=O)N[C@H](C(=O)N[C@@H](C)C(=O)N[C@@H](CCCCN)C(=O)N[C@@H](C)B(O)O)[C@@H](C)O [Compound 120] (Decanoyl-[Dab]TAK-boroAla)", "MIC (μg/mL) E. coli", "11 µg/mL"),
    ("CCCCCCCCCCNCCC(=O)N[C@@H](CCCCN)C(=O)N[C@H](C(=O)N[C@@H](C)C(=O)N[C@@H](CN)C(=O)N[C@@H](C)C(=O)C(=O)OC)[C@@H](C)O [Compound 256] ({Propanoyl(3-decylamino)}-KTA[Dap]-AlaCOCOOMe)", "MIC (μg/mL) E. coli", ">64 µg/mL"),
    ("C[C@H](NC(=O)[C@H](CCCCN)NC(=O)[C@H](C)NC(=O)[C@@H](NC(=O)C(NC(=O)c1ccc(-c2ccc(Cl)cc2)cc1)C1CNC1)[C@@H](C)O)B1O[C@@H]2C[C@@H]3C[C@@H](C3(C)C)[C@]2(C)O1 (some centres unmarked) [Compound 281]", "MIC (μg/mL) E. coli", "8 µg/mL"),
]

# per-item lookup of MIC (μg/mL) E. coli; items listed below
1. CCCCc1ccc(-c2ccc(C(=O)N[C@@H](CCN)C(=O)N(C)CC(=O)N[C@@H](C)C(=O)N[C@@H](CCCCN)C(=O)N[C@@H](C)B3O[C@@H]4C[C@@H]5C[C@@H](C5(C)C)[C@]4(C)O3)cc2)cc1 [Compound 124] ({Biphenylcarbonyl(4'-Bu)}-[Dab][Sar]AK-{boroAla((+)-pinanediol)})
2. CCCCCCCCCCNCCC(=O)N[C@@H](CCCCN)C(=O)N[C@H](C(=O)N[C@@H](C)C(=O)N[C@@H](CN)C(=O)N[C@@H](C)C(=O)C(=O)O)[C@@H](C)O [Compound 257] ({Propanoyl(3-decylamino)}-KTA[Dap]-X22)
3. CCCCCCN1CCNC(C(=O)N[C@@H](CCCCN)C(=O)N[C@H](C(=O)N[C@@H](C)C(=O)N[C@@H](CCCCN)C(=O)N[C@@H](C)B2O[C@@H]3C[C@@H]4C[C@@H](C4(C)C)[C@]3(C)O2)[C@@H](C)O)C1 (stereo partly drawn) [Compound 280] (H-[X32]KTAK-{boroAla((+)-pinanediol)})
4. C[C@H](NC(=O)[C@H](CCCCN)NC(=O)[C@H](C)NC(=O)[C@@H](NC(=O)[C@H](CCCCN)NC(=O)N1CCC(c2ccccc2)CC1)[C@@H](C)O)B1O[C@@H]2C[C@@H]3C[C@@H](C3(C)C)[C@]2(C)O1 [Compound 126] ({X4-CO}-KTAK-{boroAla((+)-pinanediol)})

1: 0.6 µg/mL; 2: >64 µg/mL; 3: >64 µg/mL; 4: >64 µg/mL

Request the reported MIC (μg/mL) E. coli associated with CCCCCCCCCCNCCS(=O)(=O)N[C@@H](CCN)C(=O)N[C@H](C(=O)N[C@@H](C)C(=O)N[C@@H](CCCCN)C(=O)N[C@@H](C)B1O[C@@H]2C[C@@H]3C[C@@H](C3(C)C)[C@]2(C)O1)[C@@H](C)O [Compound 239] ({Ethanesulfonyl(2-NHDecyl)}-[Dab]TAK-{boroAla((+)-pinanediol)})
4 µg/mL
